Target: human recombinant adrenergic α2B receptor (Homo sapiens, UniProt P18089)
Construct: expressed in transfected cells; host or cells: CHO-K1 cells
Sequence (P18089 whole entry): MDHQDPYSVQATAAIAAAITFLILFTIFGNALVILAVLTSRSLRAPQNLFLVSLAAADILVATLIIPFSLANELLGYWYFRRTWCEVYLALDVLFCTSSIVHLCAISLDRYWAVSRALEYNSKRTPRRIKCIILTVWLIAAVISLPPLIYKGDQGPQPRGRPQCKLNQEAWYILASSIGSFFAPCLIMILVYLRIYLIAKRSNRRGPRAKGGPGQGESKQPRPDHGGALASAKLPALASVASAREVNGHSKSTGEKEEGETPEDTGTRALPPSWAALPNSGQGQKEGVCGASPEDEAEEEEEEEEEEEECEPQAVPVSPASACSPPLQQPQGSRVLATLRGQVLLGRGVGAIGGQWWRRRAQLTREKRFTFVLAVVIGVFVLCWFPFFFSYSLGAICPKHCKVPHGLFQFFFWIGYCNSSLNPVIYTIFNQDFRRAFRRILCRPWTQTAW
Test: Adrenergic α2B radioligand binding ([3H]Rauwolscine)
Set-up: concentration or dose not given beside the values
Conditions: percent inhibition of specific binding
measured property: Inhibition of ligand binding, Adren. alpha2B (%)

INSERT INTO assay_data (compound, system_name, measurement_units, reading) VALUES
  ('CN1CCc2c(c3cc(Cl)ccc3n2CCC(=O)N2CCCCC2)C1', 'human recombinant adrenergic α2B receptor (Homo sapiens, UniProt P18089)', '%', 52),
  ('Cc1ccc2c(c1)c1c(n2CCc2ccc(C(F)(F)F)nc2)CCN(C)C1', 'human recombinant adrenergic α2B receptor (Homo sapiens, UniProt P18089)', '%', 111),
  ('CC(Cn1c2c(c3ccccc31)CN(C)CC2)c1ccc(F)cc1 (stereo not drawn)', 'human recombinant adrenergic α2B receptor (Homo sapiens, UniProt P18089)', '%', 120),
  ('Cc1ccc2c(c1)c1c(n2CCc2ccccc2)CCN(C(=O)OCC(Cl)(Cl)Cl)C1', 'human recombinant adrenergic α2B receptor (Homo sapiens, UniProt P18089)', '%', 0),
  ('Cc1ccc(CCn2c3c(c4cc(C(C)C)ccc42)CN(C)CC3)cn1', 'human recombinant adrenergic α2B receptor (Homo sapiens, UniProt P18089)', '%', 109),
  ('Cc1ccc2c(c1)c1c(n2CCc2ccccc2)CCN(C)C1', 'human recombinant adrenergic α2B receptor (Homo sapiens, UniProt P18089)', '%', 108),
  ('Cc1ccc2c(c1)c1c(n2CCc2ccc(C)nc2)C(Br)C(=O)N(C)C1 (stereo not drawn)', 'human recombinant adrenergic α2B receptor (Homo sapiens, UniProt P18089)', '%', 8),
  ('CCCc1ccc(CCn2c3c(c4cc(C)ccc42)CN(C)CC3)cn1', 'human recombinant adrenergic α2B receptor (Homo sapiens, UniProt P18089)', '%', 104),
  ('CN1CCc2c(c3cc(Cl)ccc3n2CC(=O)N2CCS(=O)(=O)CC2)C1', 'human recombinant adrenergic α2B receptor (Homo sapiens, UniProt P18089)', '%', 18);
